assay: Metabolic stability in po dosed rat bile assessed as drug recovery after 96 hrs; format: ADME, organism-based; conditions: read-out: Stability
Measured Quantity: dose excreted at 96 h (%)
Output spec: scalar in %, unitless text.

Record summary for CS(=O)(=O)c1ccc(-c2cn(CC(F)(F)F)nc2[C@@H]2CCC(Cl)(Cl)C[C@H]2C(=O)NC2(C#N)CC2)cc1 : reported dose excreted at 96 h = 16

----------
assay: Cmax in ovariectomized monkey model of osteoporosis at 1 mg/kg, po qd for 1 week; format: ADME, organism-based, Macaca mulatta; set-up: dose 1 mg/kg, route oral; conditions: female, rhesus monkey, in vivo
Measured Quantity: Cmax
Remember to quote the unit after the number.

Record summary for CS(=O)(=O)c1ccc(-c2cn(CC(F)(F)F)nc2[C@@H]2CCC(Cl)(Cl)C[C@H]2C(=O)NC2(C#N)CC2)cc1 : reported Cmax = 400 nM
